Tested on: Influenza type B (cell culture adapted strain B/Lee/40, ATCC VR-1535)
Experiment Description: Influenza antiviral assay: inhibition of virus-induced cytopathic effects (CPE) in MDCK cells, XTT dye reduction
Format: cell-based
Condition Summary: Influenza B virus, MDCK, 96 h, strain B/Lee/40, MDCK cells, CPE inhibition at 4 days
Readout Label: EC50

| Compound | Readout Label | Result |
| --- | --- | --- |
| O=C1c2c(O)c(=O)ccn2N(C23c4ccccc4CC2Cc2c3ccc(F)c2F)CN1CC(F)F (stereo not shown) | EC50 | 125 to 250 nM |
| CCN1CN(C23c4ccccc4CC2(CC)Cc2ccccc23)n2ccc(=O)c(O)c2C1=O (stereo not shown) | EC50 | 125 to 250 nM |
| CCN1C(=O)c2c(O)c(=O)ccn2N(C23c4ccccc4CC2Cc2c(Cl)cccc23)C1C (stereo not shown) | EC50 | < 125 nM |
| O=C1c2c(O)c(=O)ccn2N(C23c4ccccc4CC2Cc2cc(F)c(F)cc23)CN1CCc1ccc(F)cc1 (stereo not shown) | EC50 | 250 to 375 nM |
| CN1CN(C23c4ccccc4CC2Cc2ccccc23)n2ccc(=O)c(O)c2C1=O (stereo not shown) | EC50 | 250 to 375 nM |
| CCOC12Cc3ccccc3C1(N1CN(C)C(=O)c3c(O)c(=O)ccn31)c1ccccc1C2 (stereo not shown) | EC50 | < 125 nM |
| O=C1c2c(O)c(=O)ccn2N(C23c4ccccc4CC2Cc2c3ccc(F)c2F)CN1CC1CCCCO1 (stereo not shown) | EC50 | 125 to 250 nM |
| CC1N(CC(F)F)C(=O)c2c(O)c(=O)ccn2N1C12c3ccccc3CC1Cc1c2ccc(F)c1F (stereo not shown) | EC50 | 250 to 375 nM |
| CC1N(CCF)C(=O)c2c(O)c(=O)ccn2N1C12c3ccccc3CC1Cc1c(F)cccc12 (stereo not shown) | EC50 | 125 to 250 nM |
| CCN1CN(C23c4ccccc4CC2Cc2c3ccc(F)c2F)n2ccc(=O)c(O)c2C1=O (stereo not shown) | EC50 | 125 to 250 nM |
| CN1CN(C23c4ccccc4CC2(C)Cc2ccccc23)n2ccc(=O)c(O)c2C1=O (stereo not shown) | EC50 | < 125 nM |
| O=C1c2c(O)c(=O)ccn2N(C23c4cccc(F)c4CC2Cc2c(F)cccc23)CN1CCF (stereo not shown) | EC50 | < 125 nM |
| O=C1c2c(O)c(=O)ccn2N(C23c4ccccc4CC2Cc2c(Cl)cccc23)CN1CCF (stereo not shown) | EC50 | 125 to 250 nM |
| CN1C(=O)c2c(O)c(=O)ccn2N(C23c4cccc(F)c4CC2Cc2c(F)cccc23)C1CN (stereo not shown) | EC50 | 125 to 250 nM |
| CN1CN(C23c4ccccc4CC2(C(F)F)Cc2ccccc23)n2ccc(=O)c(O)c2C1=O (stereo not shown) | EC50 | < 125 nM |
| CCN1CN(C23c4ccccc4CC2Cc2c3ccc(Cl)c2Cl)n2ccc(=O)c(O)c2C1=O (stereo not shown) | EC50 | < 125 nM |
| O=C1c2c(O)c(=O)ccn2N(C23c4ccccc4CC2Cc2c3ccc(F)c2F)CN1Cc1ccccc1 (stereo not shown) | EC50 | 375 to 500 nM |
| CCC12Cc3ccccc3C1(N1CN(C)C(=O)c3c(O)c(=O)ccn31)c1ccccc1C2 (stereo not shown) | EC50 | < 125 nM |
| O=C1c2c(O)c(=O)ccn2N(C23c4ccccc4CC2Cc2ccccc23)CN1CC1CC1 (stereo not shown) | EC50 | > 500 nM |
| COCCN1CN(C23c4ccccc4CC2Cc2ccccc23)n2ccc(=O)c(O)c2C1=O (stereo not shown) | EC50 | < 125 nM |
| CN1CN(C23c4ccccc4CC2Cc2ccc(F)cc23)n2ccc(=O)c(O)c2C1=O (stereo not shown) | EC50 | < 125 nM |
| CN1CN(C23c4cc(F)ccc4CC2Cc2c(Cl)cccc23)n2ccc(=O)c(O)c2C1=O (stereo not shown) | EC50 | < 125 nM |
| O=C1c2c(O)c(=O)ccn2N(C23c4ccccc4CC2Cc2ccccc23)CN1CCOc1ccccc1 (stereo not shown) | EC50 | < 125 nM |
| O=C1c2c(O)c(=O)ccn2N(C23c4ccccc4CC2Cc2c(Cl)cccc23)CN1CC1CCCC1 (stereo not shown) | EC50 | 125 to 250 nM |
| CN1CN(C23c4ccc(F)cc4CC2Cc2cc(F)ccc23)n2ccc(=O)c(O)c2C1=O (stereo not shown) | EC50 | > 500 nM |
| CC1N(C)C(=O)c2c(O)c(=O)ccn2N1C12c3ccccc3CC1Cc1c2ccc(F)c1F (stereo not shown) | EC50 | < 125 nM |
| CC(C)CN1C(=O)c2c(O)c(=O)ccn2N(C23c4ccccc4CC2Cc2c3ccc(F)c2F)C1C (stereo not shown) | EC50 | 250 to 375 nM |
| CC(C)CN1C(=O)c2c(O)c(=O)ccn2N(C23c4ccccc4CC2Cc2c(F)cccc23)C1C (stereo not shown) | EC50 | 250 to 375 nM |
| Cc1ccc2c(c1F)CC1Cc3ccccc3C21N1CN(C)C(=O)c2c(O)c(=O)ccn21 (stereo not shown) | EC50 | 250 to 375 nM |
| O=C1c2c(O)c(=O)ccn2N(C23c4ccccc4CC2Cc2c(F)cccc23)CN1CC1CCCCO1 (stereo not shown) | EC50 | 125 to 250 nM |
| COCCN1C(=O)c2c(O)c(=O)ccn2N(C23c4ccccc4CC2Cc2c(F)cccc23)C1C (stereo not shown) | EC50 | 375 to 500 nM |

* * *

Readings of EC50 for the listed compounds
Tested on: Influenza type B (cell culture adapted strain B/Lee/40, ATCC VR-1535)
Experiment Description: Influenza antiviral assay: inhibition of virus-induced cytopathic effects (CPE) in MDCK cells, XTT dye reduction
Assay type: cell-based
Condition Summary: Influenza B virus, MDCK, 96 h, strain B/Lee/40, MDCK cells, CPE inhibition at 4 days
Readout Label: EC50

| Compound | Target Of Assay | Readout Label | Result |
| --- | --- | --- | --- |
| CCN1CN(C23c4cccc(F)c4CC2(C)Cc2c(F)cccc23)n2ccc(=O)c(O)c2C1=O (stereo not shown) | Influenza type B (cell culture adapted strain B/Lee/40, ATCC VR-1535) | EC50 | < 125 nM |
| CCCN1C(=O)c2c(O)c(=O)ccn2N(C23c4ccccc4CC2Cc2c(Cl)cccc23)C1C (stereo not shown) | Influenza type B (cell culture adapted strain B/Lee/40, ATCC VR-1535) | EC50 | 250 to 375 nM |
| CCN1CN(C23c4ccccc4CC2Cc2c(C)cccc23)n2ccc(=O)c(O)c2C1=O (stereo not shown) | Influenza type B (cell culture adapted strain B/Lee/40, ATCC VR-1535) | EC50 | 125 to 250 nM |
| CCN1CN(C23c4ccccc4CC2Cc2c3ccc(F)c2C)n2ccc(=O)c(O)c2C1=O (stereo not shown) | Influenza type B (cell culture adapted strain B/Lee/40, ATCC VR-1535) | EC50 | 125 to 250 nM |

* * *

Test system: Influenza type B (cell culture adapted strain B/Lee/40, ATCC VR-1535)
Experiment Description: Influenza antiviral assay: inhibition of virus-induced cytopathic effects (CPE) in MDCK cells, XTT dye reduction
Format: cell-based
Condition Summary: Influenza B virus, MDCK, 96 h, strain B/Lee/40, MDCK cells, CPE inhibition at 4 days
// values below are reported EC50

| Compound | EC50 |
| --- | --- |
| O=C1c2c(O)c(=O)ccn2N(C23c4ccccc4CC2Cc2cc(F)c(F)cc23)CN1CCc1cccc(F)c1 (stereo not shown) [Compound A28] | 250 to 375 nM |
| CN1CN(C23c4cc(F)c(F)cc4CC2Cc2cc(F)c(F)cc23)n2ccc(=O)c(O)c2C1=O (stereo not shown) [Compound A8] | > 500 nM |
| O=C1c2c(O)c(=O)ccn2N(C23c4ccccc4CC2Cc2c(Cl)cccc23)CN1CC1CC1 (stereo not shown) [Compound A108] | 250 to 375 nM |
| CCCN1CN(C23c4ccccc4CC2Cc2c3ccc(F)c2F)n2ccc(=O)c(O)c2C1=O (stereo not shown) [Compound A148] | 125 to 250 nM |
| CCN1CN(C23c4cccc(C)c4CC2Cc2c(F)cccc23)n2ccc(=O)c(O)c2C1=O (stereo not shown) [Compound A66] | < 125 nM |
| O=C1c2c(O)c(=O)ccn2N(C23c4ccccc4CC2Cc2c(F)cccc23)CN1CCc1ccccc1 (stereo not shown) [Compound A87] | < 125 nM |
| O=C1c2c(O)c(=O)ccn2N(C23c4ccccc4CC2Cc2c(F)cccc23)CN1CCF (stereo not shown) [Compound A68] | < 125 nM |
| CCN1C(=O)c2c(O)c(=O)ccn2N(C23c4ccccc4CC2Cc2c(F)cccc23)C1C (stereo not shown) [Compound A138] | < 125 nM |
| CN1C(=O)c2c(O)c(=O)ccn2N(C23c4cccc(F)c4CC2Cc2c(F)cccc23)C1CO (stereo not shown) [Compound A59] | < 125 nM |
| CC1N(C)C(=O)c2c(O)c(=O)ccn2N1C12c3ccccc3CC1Cc1ccccc12 (stereo not shown) [Compound A158] | 125 to 250 nM |
| O=C1c2c(O)c(=O)ccn2N(C23c4ccccc4CC2Cc2c3ccc(F)c2F)CN1CC1CCOCC1 (stereo not shown) [Compound A15] | < 125 nM |
| O=C1c2c(O)c(=O)ccn2N(C23c4ccccc4CC2Cc2c3ccc(F)c2F)CN1Cc1cccc(F)c1 (stereo not shown) [Compound A26] | 250 to 375 nM |
| O=C1c2c(O)c(=O)ccn2N(C23c4ccccc4CC2Cc2c3ccc(F)c2F)CN1CCCF (stereo not shown) [Compound A80] | < 125 nM |
| O=C1c2c(O)c(=O)ccn2N(C23c4ccccc4CC2Cc2c3ccc(F)c2F)CN1CCc1cccc(F)c1 (stereo not shown) [Compound A27] | 250 to 375 nM |
| CC(C)N1CN(C23c4ccccc4CC2(C)Cc2c3ccc(F)c2F)n2ccc(=O)c(O)c2C1=O (stereo not shown) [Compound A167] | < 125 nM |
| CCCN1CN(C23c4cccc(F)c4CC2Cc2c(F)cccc23)n2ccc(=O)c(O)c2C1=O (stereo not shown) [Compound A153] | 125 to 250 nM |
